Reference for the values: paper PMC4414246

The entries below come with measured Kd values attached.
Biological target: U1A L49A:E19A (UniProt P09012 10-89, E19A;L49A)
Sequence (P09012 10-89 E19A/L49A): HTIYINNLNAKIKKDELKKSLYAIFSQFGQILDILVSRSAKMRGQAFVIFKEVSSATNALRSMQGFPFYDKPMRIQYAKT
Assay: fluorescence polarization
The figure you give is taken to be in µM; do not add the unit.

The binder listed as AGCUUAUCCAUUGCACCGGAUAAGCU (structured_RNA) [U1hpII RNA] has a reported Kd of 11.7

The binder listed as GGCAGAUCUGAGCCUGGGAGCUCUCUGCC (structured_RNA) [TAR RNA] has a reported Kd of 6.9
